Data provenance is ChEMBL document CHEMBL1136741.

Measured MIC, listed per entry.
# Test system: Staphylococcus epidermidis
# protocol.summary: Antibacterial activity against Staphylococcus epidermis 533 strain
# Assay type: functional
Supply the numeric figure in µg/mL, leaving out any unit text.

Guide cases for MIC, answers given:
compound: CCCCCCCCCCNC(=O)[C@H]1NC(=O)[C@H]2NC(=O)[C@H](NC(=O)[C@@H]3NC(=O)[C@H](CC(N)=O)NC(=O)[C@H](NC(=O)[C@@H](CC(C)C)NC)[C@H](O)c4ccc(c(Cl)c4)Oc4cc3cc(c4O[C@@H]3O[C@H](CO)[C@@H](O)[C@H](O)[C@H]3O[C@H]3C[C@](C)(N)C(O)[C@H](C)O3)Oc3ccc(cc3Cl)[C@H]2O)c2ccc(O)c(c2)-c2c(O)cc(O)cc21 (stereo partly drawn)
quantity.unit: µg/mL
MIC: 0.5

compound: N[C@H]1C(=O)N[C@@H]2Cc3ccc(c(Cl)c3)Oc3cc4cc(c3O)Oc3ccc(cc3Cl)[C@@H](O)[C@@H]3NC(=O)[C@H](NC(=O)[C@@H]4NC(=O)[C@@H](NC2=O)c2cc(O)cc(c2)Oc2cc1ccc2O)c1ccc(O)c(c1)-c1c(O)cc(O)cc1[C@@H](C(=O)O)NC3=O
quantity.unit: µg/mL
MIC: 0.25

Shifting focus to the compound that follows.
Req: Need MIC of CN[C@H](CC(C)C)C(=O)N[C@H]1C(=O)N[C@@H](CC(N)=O)C(=O)N[C@H]2C(=O)N[C@H]3C(=O)N[C@H](C(=O)N[C@H](C(=O)O)c4cc(O)cc(O)c4-c4cc3ccc4O)[C@H](O)c3ccc(cc3)Oc3cc2cc(c3O)Oc2ccc(cc2Cl)[C@H]1O , thanks.
Resp: 32

###

Measured MIC, listed per entry.
# Tested on: Enterococcus faecium
# protocol.summary: Antibacterial activity against glycopeptide resistant Enterococcus faecium 569 strain
# Type: functional

Guide cases for MIC, answers given:
smiles.code: CN[C@H](CC(C)C)C(=O)N[C@H]1C(=O)N[C@@H](CC(N)=O)C(=O)N[C@H]2C(=O)N[C@H]3C(=O)N[C@H](C(=O)N[C@H](C(=O)O)c4cc(O)cc(O)c4-c4cc3ccc4O)[C@H](O)c3ccc(c(Cl)c3)Oc3cc2cc(c3O[C@@H]2O[C@H](CO)[C@@H](O)[C@H](O)[C@H]2O[C@H]2C[C@](C)(N)[C@H](O)[C@H](C)O2)Oc2ccc(cc2Cl)[C@H]1O
MIC: > 128 µg/mL
//
smiles.code: NC(=O)C[C@@H]1NC(=O)[C@H](N)[C@H](O)c2ccc(c(Cl)c2)Oc2cc3cc(c2O)Oc2ccc(cc2)[C@@H](O)[C@@H]2NC(=O)[C@H](NC(=O)[C@@H]3NC1=O)c1ccc(O)c(c1)-c1c(O)cc(O)cc1[C@@H](C(=O)NCc1ccc(-c3ccc(Cl)cc3)cc1)NC2=O
MIC: 64 µg/mL

Shifting focus to the molecule that follows.
Req: Need MIC of C[C@@H]1O[C@@H](O[C@H]2[C@H](Oc3c4cc5cc3Oc3ccc(cc3Cl)[C@@H](O)[C@@H](N)C(=O)N[C@@H](CC(N)=O)C(=O)N[C@H]5C(=O)N[C@H]3C(=O)N[C@H](C(=O)N[C@H](C(=O)O)c5cc(O)cc(O)c5-c5cc3ccc5O)[C@H](O[C@H]3C[C@](C)(N)[C@@H](O)[C@H](C)O3)c3ccc(cc3)O4)O[C@H](CO)[C@@H](O)[C@@H]2O)C[C@](C)(N)[C@H]1O , thanks.
Resp: > 128 µg/mL

###

Measured MIC, listed per entry.
# Test system: Enterococcus faecium
# protocol.summary: Antibacterial activity against glycopeptide susceptible Enterococcus faecium 568 strain
# Assay type: functional
Answer format: value, then unit.

molecule: CCCCCCCCCCNC(=O)[C@H]1NC(=O)[C@H]2NC(=O)[C@H](NC(=O)[C@H](N)c3cc(Oc4ccc(C[C@@H](N)CO)cc4Cl)c(O)c(c3)Oc3ccc(cc3Cl)[C@H]2O[C@@H]2O[C@@H](CO)[C@@H](O)[C@H](O)[C@@H]2NC(C)=O)c2ccc(O)c(c2)-c2c(O[C@H]3O[C@H](CO)[C@@H](O)[C@@H](O)[C@@H]3O)cc(O)cc21
MIC: 16 µg/mL

Shifting focus to the molecule that follows.
Req: Param readout = MIC; param system = Enterococcus faecium; param query = CN[C@H](CC(C)C)C(=O)N[C@H]1C(=O)N[C@@H](CC(N)=O)C(=O)N[C@H]2C(=O)N[C@H]3C(=O)N[C@H](C(=O)N[C@H](C(=O)O)c4cc(O)cc(O)c4-c4cc3ccc4O)[C@H](O[C@@H]3C[C@@](C)(N)[C@H](O)[C@@H](C)O3)c3ccc(cc3)Oc3cc2cc(c3O[C@H]2O[C@@H](CO)[C@H](O)[C@@H](O)[C@@H]2O[C@H]2C[C@](C)(N)[C@@H](O)[C@H](C)O2)Oc2ccc(cc2Cl)[C@H]1O [EREMOMYCIN] ; response: value
Resp: 0.25 µg/mL

###

# Test system: Enterococcus faecium
# protocol.summary: Antibacterial activity against glycopeptide resistant Enterococcus faecium 569 strain
# Assay type: functional
test.readout: MIC (µg/mL)
Supply the numeric figure in µg/mL, leaving out any unit text.

molecule: CCCCCCCCCCNC(=O)[C@H]1NC(=O)[C@H]2NC(=O)[C@H](NC(=O)[C@@H]3NC(=O)[C@H](CC(N)=O)NC(=O)[C@H](N)[C@H](O)c4ccc(c(Cl)c4)Oc4cc3cc(c4O)Oc3ccc(cc3)[C@H]2O)c2ccc(O)c(c2)-c2c(O)cc(O)cc21
MIC [µg/mL]: 64
//
molecule: CCCCCCCCCCNC(=O)[C@H]1NC(=O)[C@H]2NC(=O)[C@H](NC(=O)[C@@H]3NC(=O)[C@H](CC(N)=O)NC(=O)[C@H](NC(=O)[C@@H](CC(C)C)NC)[C@H](O)c4ccc(c(Cl)c4)Oc4cc3cc(c4O[C@@H]3O[C@H](CO)[C@@H](O)[C@H](O)[C@H]3O[C@H]3C[C@](C)(N)C(O)[C@H](C)O3)Oc3ccc(cc3Cl)[C@H]2O)c2ccc(O)c(c2)-c2c(O)cc(O)cc21 (stereo partly specified)
MIC [µg/mL]: 8

Req: Need MIC of CCCCCCCCCCNC(=O)[C@H]1NC(=O)[C@H]2NC(=O)[C@H](NC(=O)[C@@H]3NC(=O)[C@H](CC(N)=O)NC(=O)[C@H](NC(=O)[C@@H](CC(C)C)NC)[C@H](O)c4ccc(c(Cl)c4)Oc4cc3cc(c4O)Oc3ccc(cc3)[C@H]2O)c2ccc(O)c(c2)-c2c(O)cc(O)cc21 , thanks.
Resp: 4

###

# Tested on: Staphylococcus epidermidis
# protocol.summary: Antibacterial activity against Staphylococcus epidermis 533 strain
# Assay type: functional
test.readout: MIC (µg/mL)
Supply the numeric figure in µg/mL, leaving out any unit text.

Req: Need MIC of CN[C@H](CC(C)C)C(=O)N[C@H]1C(=O)N[C@@H](CC(N)=O)C(=O)N[C@H]2C(=O)N[C@H]3C(=O)N[C@H](C(=O)N[C@H](C(=O)NCc4ccc(-c5ccc(Cl)cc5)cc4)c4cc(O)cc(O)c4-c4cc3ccc4O)[C@H](O[C@H]3C[C@](C)(N)[C@@H](O)[C@H](C)O3)c3ccc(cc3)Oc3cc2cc(c3O[C@@H]2O[C@H](CO)[C@@H](O)[C@H](O)[C@H]2O[C@H]2C[C@](C)(N)[C@@H](O)[C@H](C)O2)Oc2ccc(cc2Cl)[C@H]1O , thanks.
Resp: 2

###

# Tested on: Enterococcus faecium
# protocol.summary: Antibacterial activity against glycopeptide susceptible Enterococcus faecium 568 strain
# Assay type: functional
Measured MIC, listed per entry.
Supply the numeric figure in µg/mL, leaving out any unit text.

smiles.code: N[C@H]1C(=O)N[C@@H]2Cc3ccc(c(Cl)c3)Oc3cc4cc(c3O)Oc3ccc(cc3Cl)[C@@H](O)[C@@H]3NC(=O)[C@H](NC(=O)[C@@H]4NC(=O)[C@@H](NC2=O)c2cc(O)cc(c2)Oc2cc1ccc2O)c1ccc(O)c(c1)-c1c(O)cc(O)cc1[C@@H](C(=O)NCc1ccc(-c2ccc(Cl)cc2)cc1)NC3=O
test.readout: MIC
readout.number: 0.25

Req: Need MIC of N[C@H]1C(=O)N[C@@H]2Cc3ccc(c(Cl)c3)Oc3cc4cc(c3O)Oc3ccc(cc3Cl)[C@@H](O)[C@@H]3NC(=O)[C@H](NC(=O)[C@@H]4NC(=O)[C@@H](NC2=O)c2cc(O)cc(c2)Oc2cc1ccc2O)c1ccc(O)c(c1)-c1c(O)cc(O)cc1[C@@H](C(=O)O)NC3=O , thanks.
Resp: 0.13

###

# System: Staphylococcus epidermidis
# protocol.summary: Antibacterial activity against Staphylococcus epidermis 533 strain
# Assay type: functional
test.readout: MIC (µg/mL)
Supply the numeric figure in µg/mL, leaving out any unit text.

smiles.code: CCCCCCCCCCNC(=O)[C@H]1NC(=O)[C@H]2NC(=O)[C@H](NC(=O)[C@@H]3NC(=O)[C@H](CC(N)=O)NC(=O)[C@H](NC(=O)[C@@H](CC(C)C)NC)[C@H](O)c4ccc(c(Cl)c4)Oc4cc3cc(c4O[C@@H]3O[C@H](CO)[C@@H](O)[C@H](O)[C@H]3O[C@H]3C[C@](C)(N)[C@@H](O)[C@H](C)O3)Oc3ccc(cc3)[C@H]2O[C@H]2C[C@](C)(N)[C@@H](O)[C@H](C)O2)c2ccc(O)c(c2)-c2c(O)cc(O)cc21
MIC (µg/mL): 0.13

smiles.code: C[C@@H]1O[C@@H](O[C@H]2[C@H](Oc3c4cc5cc3Oc3ccc(cc3Cl)[C@@H](O)[C@@H](N)C(=O)N[C@@H](CC(N)=O)C(=O)N[C@H]5C(=O)N[C@H]3C(=O)N[C@H](C(=O)N[C@H](C(=O)NCc5ccc(-c6ccc(Cl)cc6)cc5)c5cc(O)cc(O)c5-c5cc3ccc5O)[C@H](O[C@H]3C[C@](C)(N)[C@@H](O)[C@H](C)O3)c3ccc(cc3)O4)O[C@H](CO)[C@@H](O)[C@@H]2O)C[C@](C)(N)[C@H]1O
MIC (µg/mL): 4

Shifting focus to the molecule that follows.
Req: Need MIC of CN[C@H](CC(C)C)C(=O)N[C@H]1C(=O)N[C@@H](CC(N)=O)C(=O)N[C@H]2C(=O)N[C@H]3C(=O)N[C@H](C(=O)N[C@H](C(=O)NCc4ccc(-c5ccc(Cl)cc5)cc4)c4cc(O)cc(O)c4-c4cc3ccc4O)[C@H](O)c3ccc(cc3)Oc3cc2cc(c3O)Oc2ccc(cc2Cl)[C@H]1O , thanks.
Resp: 4
